Test Readout: melting point

Determine its reported melting point: Cc1ccc(NC(=O)CCCN2CCOCC2)cc1Nc1nc(-c2cccnc2)cs1
116 to 120 °C

Determine its reported melting point: Cc1ccc(NC(=O)c2cccc(N(C)C)c2)cc1Nc1nc(-c2cccnc2)cs1
197 to 198 °C

Determine its reported melting point: Cc1ccc(NC(=O)c2ccc(N(C)C)cc2)cc1Nc1nc(-c2cccnc2)cs1
147 to 150 °C

Determine its reported melting point: Cc1ccc(NC(=O)c2ccc(-c3ccncc3)cc2)cc1Nc1nc(-c2cccnc2)cs1
254 to 256 °C

Determine its reported melting point: Cc1ccc(NC(=O)c2ccc(NS(=O)(=O)c3cccs3)cc2)cc1Nc1nc(-c2cccnc2)cs1
230 to 233 °C

Determine its reported melting point: Cc1ccc(NC(=O)c2ccc(C(C)(C)C)cc2)cc1Nc1nc(-c2cccnc2)cs1
145 to 150 °C
